pKi: −log10 of the molar value.
The following are reported pKi results, target or system UniProtKB Q9Y5Y4.

Guide cases for pKi, answers given:
{"columns": ["Molecule", "Property Measured", "Observed Result"],
 "data": [
  ["CCN(C(=O)[C@H]1C[C@@H](C)N(C(=O)c2ccc(OCCC(C)(C)C(=O)O)cc2)c2ccccc21)c1ccc(Cl)cc1 (racemic)", "pKi", "> 5.00"],
  ["CCN(C(=O)[C@H]1C[C@H](C)N(C(=O)c2ccc(OC)cc2)c2ccccc21)c1ccccc1C (racemic)", "pKi", "> 5.00"]
]}

Here is the next item to consider.
Summary line: CCN(C(=O)[C@H]1C[C@H](C)N(C(=O)c2ccc(OC)cc2)c2ccccc21)c1ccc(C)c(C(F)(F)F)c1 (racemic) , UniProtKB Q9Y5Y4, reported pKi = > 5.00

* * *

cloned human CRTH2 receptor (Homo sapiens): recorded pKi for assorted compounds
Sequence (Q9Y5Y4 whole entry): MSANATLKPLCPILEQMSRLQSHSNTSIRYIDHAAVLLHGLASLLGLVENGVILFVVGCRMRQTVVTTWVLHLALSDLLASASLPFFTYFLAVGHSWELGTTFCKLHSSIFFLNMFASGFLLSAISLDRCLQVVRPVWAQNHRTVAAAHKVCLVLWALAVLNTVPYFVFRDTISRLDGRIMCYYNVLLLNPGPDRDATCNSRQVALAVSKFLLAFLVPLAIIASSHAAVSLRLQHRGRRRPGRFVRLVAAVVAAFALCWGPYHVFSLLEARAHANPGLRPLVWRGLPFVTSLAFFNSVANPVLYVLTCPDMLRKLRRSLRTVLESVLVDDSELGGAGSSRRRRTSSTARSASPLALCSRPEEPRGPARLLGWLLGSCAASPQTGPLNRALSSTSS
pKi: −log10 of the molar value.

Here is how some compounds turned out for pKi.
{"columns": ["Compound", "pKi"],
 "data": [
  ["CCN(C(=O)[C@H]1C[C@H](C)N(C(=O)c2ccc(OC)cc2)c2ccccc21)c1ccc(Cl)c(C(F)(F)F)c1 (racemic)", "> 5.00"],
  ["CCN(C(=O)[C@H]1C[C@H](C)N(C(=O)Cc2ccc(OC)cc2)c2ccccc21)c1ccc(Cl)cc1 (racemic)", "> 5.00"]
]}

Proceeding to the next compound to report its pKi.
Looking up CCN(C(=O)C1CCN(C(=O)c2ccc(OC)cc2)c2ccccc21)c1ccc(Cl)cc1 (racemic) , I found its pKi recorded as > 5.00
